Where these numbers come from: patent US20220135687A1

# target or system: human PD-L1 expressed on CHO-K1 cells (Genscript, Cat #M00543) (human, UniProt Q9NZQ7 19-290)
# Sequence (Q9NZQ7 19-290, one chain of several): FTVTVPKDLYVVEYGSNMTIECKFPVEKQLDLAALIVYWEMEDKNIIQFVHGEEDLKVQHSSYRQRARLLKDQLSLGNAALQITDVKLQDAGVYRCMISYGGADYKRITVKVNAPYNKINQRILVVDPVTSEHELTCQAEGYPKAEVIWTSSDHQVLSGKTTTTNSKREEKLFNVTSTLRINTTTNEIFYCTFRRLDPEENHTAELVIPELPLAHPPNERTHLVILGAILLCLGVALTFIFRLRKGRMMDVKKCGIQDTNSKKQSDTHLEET
# assay summary: cell-based or functional assay
Listing of recorded EC50, PD-L1 cell-based luciferase reporter assay by entry.
# unit: nM | format: bare number

Worked examples, 3 binders total:
>>> observed_measurement("18B7F4G8 (antibody, V domains shown, Mouse mAb from hybridoma culture) VH: DVQLQESGPDLVKPSQSLSLTCTVTGYSITSGYTWHWIRQFPGNKLEWMGYIHYSGSTKYNPSLKSRFSITRDTSKNQFFLQLNSMTAEDTATYYCARNSLFASWGHGTLVTVSA VL: DIVLTQSPASLAVSLGQRATISCRASESVDTYGDSFMHWFQQKPGQPPKLLIYRASNLESGIPARFSGSGSRTDFTLTINPVEADDVATYYCQQSNEAPYTFGGGTKLEIK")
2.27
>>> observed_measurement("29A8H8C7 (antibody, V domains shown, Mouse mAb from hybridoma culture; also called mouse 29A8H8C7) VH: DVQLQGSGPGLVKPSQSLSLTCTVTGYSITSDFAWDWIRQFPGNKLEWMGHIRFSGTTSYNPSLKSRISITRDTSKNQFFLQLNSVTSEDTATYYCARSTLITKGFFDYWGQGTTLTVSS VL: DIVMTQSHKFMSTSVGGRVSITCKASQDVSPAVAWYQQKPGQSPKLLIYWASTRHTGVPDRFTGSGSGTDFTLTISSVQTEDLALYYCQQHYSTPWTFGGGTKLEIK")
3.61
>>> observed_measurement("53C1F3D4 (antibody, V domains shown, Mouse mAb from hybridoma culture; also called mouse 53C1F3D4) VH: QVQLQQSGNELARPGASVRLSCKASGYIFTGYGITWVRQRPGQGLEWIGEIFPRRVNTYYSEKFKGRATLTADISSSTAYMELRSLTSEDSAVYFCARDYDPYFALDYWGQGTSVTVSS VL: DIVMTQSHKFMSTSVGDRVSITCKASQDVSTAVDWYQQKPGQSPKLLIYSASYRYTGVPDRFTGSGSGTAFTFTISGEQAEDLAVYYCQQHYSIPFTFGGGTKLEIK")
4.45

Item 51F3D2G4 (antibody, V domains shown, Mouse mAb from hybridoma culture) VH: QVQLQQSGAELARPGASVRLSCKASGYIFTGYGISWVKQRTGQGLEWIGEIFPRTANTYFNEKFKGKATLTADKSSSTAYMELRSLTSEDSAVYFCARDYDPYYALDYWGQGTSVTVSS VL: DIVMTQSHKFMSTSVGDRVTITCKASQDVSTAVDWYQQKPGQSPKLLIYSASYRYTGVPDRFTGSGSGTAFTFTISSEQAEDLAVYYCQQHYSVPFTFGGGTKLEIK has what recorded EC50, PD-L1 cell-based luciferase reporter assay? 8.69

What would you report for 27D3D3G2 (antibody, V domains shown, Mouse mAb from hybridoma culture) VH: QVLLQQSGPELVKPGASVRISCKASGYTFTSYYMHWVKQRPGQGLEWIGWIYPGNVNTKYNEKFKGKATLTADKSSSTAYMQLSSLTSEDSAVYFCASYGNYGGWYFDVWGAGTTVTVSS VL: DIQMTQTTSSLSASLGDRVTISCRASQDIGNYLNWYQQKPDGTVKLLIYYTSRLHSGVPSRFSGSGSGTDYSLTISNLEQEDIATYFCQQGDTFPWTFGGGTKLEIK ? 3.62
